Hello, the source for this data is paper PMC4491433, in case you need it.

molecular target: UniProt P22888; test: inhibition of LH EC80 response at hLH receptor
Sequence (P22888 27-699): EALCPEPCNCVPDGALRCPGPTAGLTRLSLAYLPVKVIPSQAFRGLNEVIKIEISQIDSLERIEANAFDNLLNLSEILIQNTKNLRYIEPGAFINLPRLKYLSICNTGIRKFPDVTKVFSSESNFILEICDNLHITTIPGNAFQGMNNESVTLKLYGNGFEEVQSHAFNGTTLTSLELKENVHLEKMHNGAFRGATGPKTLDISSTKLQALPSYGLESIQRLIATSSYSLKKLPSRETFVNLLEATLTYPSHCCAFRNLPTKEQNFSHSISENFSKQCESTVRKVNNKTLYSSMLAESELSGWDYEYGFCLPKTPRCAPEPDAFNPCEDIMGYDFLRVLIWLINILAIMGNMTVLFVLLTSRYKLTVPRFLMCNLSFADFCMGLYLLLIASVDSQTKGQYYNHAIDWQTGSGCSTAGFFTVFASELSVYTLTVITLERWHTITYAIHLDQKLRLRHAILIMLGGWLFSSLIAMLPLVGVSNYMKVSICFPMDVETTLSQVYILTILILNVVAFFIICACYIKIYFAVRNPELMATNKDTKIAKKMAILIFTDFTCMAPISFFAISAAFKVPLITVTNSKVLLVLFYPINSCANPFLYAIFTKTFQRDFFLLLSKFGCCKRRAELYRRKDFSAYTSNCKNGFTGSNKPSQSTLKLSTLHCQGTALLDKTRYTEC
Measurement Label: pIC50
Reminder that pIC50 means the negative base-10 logarithm of the concentration expressed in mol/L.

Reported pIC50, compound COc1ccc(C(=O)Nc2ccc(C(C)(C)C#N)cc2)cc1OC [ADX61623] : ____
5.47
